Please provide measured melting point for the entries that follow.

Request: Given CCCCS(=O)(=O)NC(=O)c1ccc2nc(C)n(Cc3ccc(Br)cc3Cl)c2n1 , state its recorded melting point.
Response: 165 to 166 °C

Request: Given Cc1nc2ccc(C(=O)NS(=O)(=O)c3ccc(Br)s3)nc2n1Cc1ccc(Cl)cc1Cl , state its recorded melting point.
Response: 168 to 169 °C

Request: Given COc1ccc(Cn2c(C)nc3ccc(C(=O)NS(=O)(=O)c4ccccc4)nc32)c(Cl)c1 , state its recorded melting point.
Response: 151 to 152 °C

Request: Given CCCCS(=O)(=O)NC(=O)c1ccc2nc(C)c(=O)n(Cc3ccc(Cl)cc3Cl)c2c1 , state its recorded melting point.
Response: 223 to 225 °C

Request: Given CCCCCS(=O)(=O)NC(=O)c1cc(C)cc2c(C)c(Cc3ccc(Cl)cc3Cl)oc12 , state its recorded melting point.
Response: 164 to 165.5 °C

Request: Given CCCCCS(=O)(=O)NC(=O)c1ccc2sc(C)c(Cc3ccc(Cl)c(Cl)c3)c2c1 , state its recorded melting point.
Response: 159 to 160 °C

Request: Given CCCCS(=O)(=O)NC(=O)c1ccc2nc(C)n(Cc3ccc(-c4ccccc4)cc3Cl)c2n1 , state its recorded melting point.
Response: 199 to 200 °C

Request: Given Cc1nc2ccc(C(=O)NS(=O)(=O)c3ccccc3)nc2n1Cc1ccc(-c2cccs2)cc1Cl , state its recorded melting point.
Response: 225 to 226 °C

Request: Given Cc1nc2ccc(C(=O)NS(=O)(=O)c3ccc(Cl)s3)nc2n1Cc1ccc(-c2ccccc2)cc1Cl , state its recorded melting point.
Response: 210 to 212 °C

Request: Given Cc1cc(C(=O)NS(=O)(=O)c2ccccc2)c2oc(Cc3ccc(Cl)cc3Cl)c(C)c2c1 , state its recorded melting point.
Response: 214 to 215 °C

Request: Given Cc1nc2ccc(C(=O)NS(=O)(=O)c3ccccc3)nc2n1Cc1ccc(C(=O)O)cc1Cl , state its recorded melting point.
Response: 155 to 160 °C

Request: Given Cc1cc(C(=O)NS(=O)(=O)c2ccc(Br)s2)nc2c1nc(C)n2Cc1ccc2ccccc2c1Br , state its recorded melting point.
Response: 247 to 248 °C

Request: Given CSc1ccc(Cn2c(C)nc3ccc(C(=O)NS(=O)(=O)c4ccccc4)nc32)c(Cl)c1 , state its recorded melting point.
Response: 165 to 166 °C

Request: Given Cc1cc(C(=O)NS(=O)(=O)c2ccccc2)nc2c1nc(C)n2Cc1ccc2ccccc2c1Br , state its recorded melting point.
Response: 229 to 230 °C

Request: Given CCCCCS(=O)(=O)NC(=O)c1ccc2nc(C)n(Cc3ccc(Cl)cc3OC)c2n1 , state its recorded melting point.
Response: 168 to 170 °C

Request: Given Cc1nc2ccc(C(=O)NS(=O)(=O)c3ccccc3)nc2n1Cc1ccc(-c2ccc(Cl)s2)cc1Cl , state its recorded melting point.
Response: 215 to 217 °C

----------
Please provide measured melting point for the entries that follow.

Request: Given CCCCCS(=O)(=O)NC(=O)c1cnc2nc(C)n(Cc3ccc(Cl)cc3Cl)c2c1 , state its recorded melting point.
Response: 103 to 106 °C

Request: Given CCCCS(=O)(=O)NC(=O)c1ccc2c(c1)n(Cc1ccc(Cl)cc1Cl)c(=O)c(=O)n2C , state its recorded melting point.
Response: 243 to 246 °C

Request: Given C=Cc1ccc(Cn2c(C)nc3ccc(C(=O)NS(=O)(=O)c4ccccc4)nc32)c(Cl)c1 , state its recorded melting point.
Response: 174 to 175 °C

Request: Given CCCCCS(=O)(=O)NC(=O)c1ccc2c(=O)nc(C)n(Cc3ccc(Cl)cc3Cl)c2c1 , state its recorded melting point.
Response: 168 to 170 °C

Request: Given CCCCCS(=O)(=O)NC(=O)c1ccc2nc(C)n(Cc3ccc(-c4ccccc4)cc3)c2n1 , state its recorded melting point.
Response: 170 to 171 °C

Request: Given CCCCCS(=O)(=O)NC(=O)c1cc(C)c2nc(C)n(Cc3ccc(-c4ccccc4)cc3Cl)c2n1 , state its recorded melting point.
Response: 227 to 228 °C

Request: Given Cc1cc(C(=O)NS(=O)(=O)c2ccc(Cl)s2)nc2c1nc(C)n2Cc1ccc(Br)cc1Cl , state its recorded melting point.
Response: 214 to 215 °C

Request: Given CCCCCS(=O)(=O)NC(=O)c1ccc2nc(C)n(Cc3ccc(Cl)cc3C)c2n1 , state its recorded melting point.
Response: 155 to 157 °C

Request: Given Cc1cc(C(=O)NS(=O)(=O)/C=C/c2ccccc2)nc2c1nc(C)n2Cc1ccc2ccccc2c1Br , state its recorded melting point.
Response: 262 to 263 °C

Request: Given Cc1cc(C(=O)NS(=O)(=O)c2ccc(Cl)s2)nc2c1nc(C)n2Cc1ccc(-c2ccccc2)cc1Cl , state its recorded melting point.
Response: 241 to 242 °C

Request: Given Cc1nc2ccc(C(=O)NS(=O)(=O)c3ccc(Br)s3)nc2n1Cc1ccc(-c2ccccc2)cc1Cl , state its recorded melting point.
Response: 205 to 207 °C

Request: Given CCCCCc1ccc(Cn2c(C)nc3ccc(C(=O)NS(=O)(=O)c4ccccc4)nc32)c(Cl)c1 , state its recorded melting point.
Response: 174 to 175 °C

Request: Given CCc1c(Cc2ccc(Cl)cc2Cl)sc2c(C(=O)NS(=O)(=O)c3ccccc3)cccc12 , state its recorded melting point.
Response: 181 to 183 °C

Request: Given Cc1cc(C(=O)NS(=O)(=O)c2ccc(Br)s2)nc2c1nc(C)n2Cc1ccc(-c2ccccc2)cc1Cl , state its recorded melting point.
Response: 243 to 244 °C

Request: Given Cc1[nH]c2ccc(C(=O)NS(=O)(=O)c3ccccc3)nc2c1Cc1ccc(Cl)cc1Cl , state its recorded melting point.
Response: > 250 °C

Request: Given CCCCCS(=O)(=O)NC(=O)c1ccc2nc(C)n(Cc3ccc(Cl)cc3Cl)c2n1 , state its recorded melting point.
Response: 174 to 175 °C

Request: Given CCCCCS(=O)(=O)NC(=O)c1ccc2nc(C)n(Cc3ccc(Br)cc3Cl)c2n1 , state its recorded melting point.
Response: 183 to 184 °C

Request: Given CCCCCS(=O)(=O)NC(=O)c1cc(C)c2nc(C)n(Cc3ccc(Br)cc3Cl)c2n1 , state its recorded melting point.
Response: 148 to 149 °C

Request: Given Cc1nc2ccc(C(=O)NS(=O)(=O)c3ccccc3)nc2n1Cc1ccc([S+](C)[O-])cc1Cl (stereo not shown) , state its recorded melting point.
Response: 230 to 231 °C

Request: Given Cc1nc2ccc(C(=O)NS(=O)(=O)c3ccccc3)nc2n1Cc1ccc(CCc2ccccc2)cc1Cl , state its recorded melting point.
Response: 180 to 181 °C

Request: Given CCCCS(=O)(=O)NC(=O)c1ccc2c(=O)n(Cc3ccc(Cl)cc3Cl)cnc2c1 , state its recorded melting point.
Response: 245 to 247 °C

Request: Given Cc1cc(Cl)ccc1Cn1c(C)nc2ccc(C(=O)NS(=O)(=O)c3ccccc3)nc21 , state its recorded melting point.
Response: 235 to 237 °C

Request: Given CCCCCS(=O)(=O)NC(=O)c1cc(C)c2nc(C)n(Cc3ccc(-c4ccc(Cl)s4)cc3Cl)c2n1 , state its recorded melting point.
Response: 215 to 217 °C

Request: Given Cc1nc2ccc(C(=O)NS(=O)(=O)c3ccccc3)nc2n1Cc1ccc(C=C2SC(=O)NC2=O)cc1Cl , state its recorded melting point.
Response: 271 to 274 °C

Request: Given Cc1nc2ccc(C(=O)NS(=O)(=O)c3ccccc3)nc2n1Cc1ccc(OCC2CCCCC2)cc1Cl , state its recorded melting point.
Response: 122 to 125 °C

Request: Given CCc1ccc(Cn2c(C)nc3ccc(C(=O)NS(=O)(=O)/C=C/c4ccccc4)nc32)c(Cl)c1 , state its recorded melting point.
Response: 184 to 185 °C

Request: Given CCCCOc1ccc(Cn2c(C)nc3ccc(C(=O)NS(=O)(=O)c4ccccc4)nc32)c(Cl)c1 , state its recorded melting point.
Response: 181 to 182 °C

Request: Given Cc1nc2ccc(C(=O)NS(=O)(=O)c3ccccc3)nc2n1Cc1ccc(Cl)cc1Br , state its recorded melting point.
Response: 189 to 190 °C

Request: Given Cc1nc2ccc(C(=O)NS(=O)(=O)c3ccccc3)cn2c1Cc1ccc(Cl)cc1Cl , state its recorded melting point.
Response: 308 to 310 °C

Request: Given Cc1nc2ccc(C(=O)NS(=O)(=O)c3ccccc3)nc2n1Cc1ccc(Br)cc1Cl , state its recorded melting point.
Response: 193 to 194 °C

Request: Given CNC(=O)c1ccc(Cn2c(C)nc3ccc(C(=O)NS(=O)(=O)c4ccccc4)nc32)c(Cl)c1 , state its recorded melting point.
Response: 257 to 260 °C
